target: T1, HLA-DR3 (HLA-DRB1*03:01) (human); assay: competition ELISA vs biotin-MT 2-16
T1 construct: mature; purified from homozygous EBV-transformed lymphoblastoid cells with antibody L243
No end group written: not given here.
Listed next: entries and their corresponding relative affinity.

>  <BINDER>
ESLLPVMQHLAKNVV-NH2 [CCNB1 374-388]

>  <relative affinity>
764

$$$$
>  <BINDER>
PQLNSALVQDLAKAV-NH2 [CCNB1 416-430]

>  <relative affinity>
9

$$$$
>  <BINDER>
AKYLMELTMLDYDMV-NH2 [CCNB1 323-337]

>  <relative affinity>
2

$$$$
